The values you see were collected from PubChem BioAssay (NCI).

Give measured growth inhibition for each item. Keep answers brief.
test: NCI Yeast Anticancer Drug Screen. Data for the cln2 rad14 strain (AID 165);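 also: 0% = growth equal to vehicle treated cultures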; settings: S. cerevisiae cln2 rad14 strain, at 50.0 µM, stronger effect = higher value
This is part of a sample that, as a whole, favours compounds with a hit. Of some 79,000 tested, about 15% had one in any assay.
Answers are plain numbers, in %.

Example entries and their recorded answers appear below.
COc1cc(/C=C/[N+](=O)[O-])c(OC)cc1Br    73
CC(NC1=NCCO1)c1cccs1 (stereo not drawn)    25.9
CC(C)=CC(=O)N(C)C1C2CN3CCC(O2)C13 (stereo not drawn)    43.9
NC(N)=NCCCCCCCCCCN=C(N)N    8.4
[Cr+3].[NH-]CC[NH-].[NH-]CC[NH-].[NH-]CC[NH-].[O-][Cl+3]([O-])([O-])O    -5.15
Cc1ccc(C(C)(C)C)c(OP(=S)(S)Oc2cc(C)ccc2C(C)(C)C)c1.[Pb]    9.7

Report growth inhibition for each item below.
1. Cc1ccc(OP(=O)(Oc2ccc(C)cc2)Oc2ccc(C)cc2)cc1.Cc1ccc(OP(=O)(Oc2ccc(C)cc2)Oc2ccc(C)cc2)cc1.Cc1ccc(OP(=O)(Oc2ccc(C)cc2)Oc2ccc(C)cc2)cc1.Cc1ccc(OP(=O)(Oc2ccc(C)cc2)Oc2cccc(C)c2)cc1.[Cd+2].[O-][Cl+3]([O-])([O-])O
2. CCCCCCCN1CCC(C(=O)CC)(c2cccc(O)c2)CC1

Reply:
1. 62.6
2. -2.75
